System: HCT-15
Experiment: Antiproliferative activity against human HCT15 cells at 10 uM by SRB assay
Format: functional
Entries whose growth, % of control at 10 µM is below 30% take Criterion met; entries at or above 30% take Criterion not met.

chemical_smiles | discrete_label
C=CC[N+](C)(C)CCCN(C)C(=O)CCCCCCCCCCCCC | Criterion not met
C=CC[N+](C)(C)CCCN(C)C(=O)CCCCCCCCCCCCCCC | Criterion not met
CCCCCCCCCCCCCCCCCC(=O)N(C)CC[N+](C)(C)C | Criterion met
C=CC[N+](CC)(CC)CCN(C)C(=O)CCCCCCCCCCCCCCC | Criterion not met
CCCCCCCCCCCCCC(=O)N(C)CCC[N+](C)(C)C | Criterion met
C=CC[N+](C)(C)CC(C)(C)CNC(=O)CCCCCCCCCCCCCCCCC | Criterion not met
CCCCCCCCCCCCCC(=O)N(C)CC[N+](C)(C)C | Criterion met
CCCCCCCCCCCCCCCCCC(=O)NCC(C)(C)C[N+](C)(C)Cc1ccccc1 | Criterion not met
CCCCCCCCCCCCCCCC(=O)N(C)CC[N+](CC)(CC)Cc1ccccc1 | Criterion not met
CCCCCCCCCCCCCCCCCC(=O)NCC(C)(C)C[N+](C)(C)CC | Criterion not met

---

System: NUGC-3
Assay: Antiproliferative activity against human NUGC3 cells at 0.3 uM by SRB assay
Format: functional

chemical_smiles | growth, % of control at 0.3 µM (%)
CCCCCCCCCCCCCC(=O)N(C)CCC[N+](C)(C)Cc1ccccc1 | 90
CCCCCCCCCCCCCCCC(=O)N(C)CCC[N+](C)(C)CC | 77.8
CCCCCCCCCCCCCC(=O)N(C)CCC[N+](C)(C)C | 70.3
CCCCCCCCCCCCCCCC(=O)N(C)CC[N+](C)(C)C | 57.7
C=CC[N+](C)(C)CC(C)(C)CNC(=O)CCCCCCCCCCCCCCCCC | 89.9
CCCCCCCCCCCCCCCCCC(=O)NCC(C)(C)C[N+](C)(C)Cc1ccccc1 | 101

---

Tested on: NCI-H23
Experiment: Antiproliferative activity against human NCI-H23 cells at 0.1 uM by SRB assay
Type: functional
Entries whose growth, % of control at 0.1 µM is below 90% take class 1; entries at or above 90% take class 0.

chemical_smiles | discrete_label
CCCCCCCCCCCCCC(=O)NCCC[N+](C)(C)C | class 0
CCCCCCCCCCCCCCCC(=O)N(C)CCC[N+](C)(C)C | class 0
CCCCCCCCCCCCCCCCCC(=O)N(C)CC[N+](C)(C)C | class 0
C=CC[N+](CC)(CC)CCN(C)C(=O)CCCCCCCCCCCCCCC | class 1

---

Attribute: GI50
System: PC-3
Assay: Antiproliferative activity against human PC3 cells by SRB assay
Assay type: functional

compound | unit_descriptor | GI50
C=CC[N+](CC)(CC)CCN(C)C(=O)CCCCCCCCCCCCCCC | nM | 200
C=CC[N+](C)(C)CCCN(C)C(=O)CCCCCCCCCCCCCCC | nM | 430
CCCCCCCCCCCCCCCC(=O)N(C)CC[N+](CC)(CC)Cc1ccccc1 | nM | 310
C=CC[N+]1(CC)CCN(C(=O)CCCCCCCCCCCCCCC)CC1 | nM | 370
CCCCCCCCCCCCCCCC(=O)N1CC[N+](C)(C)CC1 | nM | 480
CCCCCCCCCCCCCCCC(=O)N(C)CCC[N+](C)(C)Cc1ccccc1 | nM | 850
CCCCCCCCCCCCCCCC(=O)N(C)CC[N+](CC)(CC)CC | nM | 230
CCCCCCCCCCCCCCCC(=O)NCC(C)(C)C[N+](C)(C)CC | nM | 440
CCCCCCCCCCCCCC(=O)N(C)CC[N+](CC)(CC)CC | nM | 260
CCCCCCCCCCCCCC(=O)N(C)CCC[N+](C)(C)Cc1ccccc1 | nM | 530
CCCCCCCCCCCCCCCCCC(=O)NCCC[N+](C)(C)C | nM | 520
CCCCCCCCCCCCCCCCCC(=O)NCC(C)(C)C[N+](C)(C)CC | nM | 300
CCCCCCCCCCCCCC(=O)NCCC[N+](C)(C)C | nM | 390
CCCCCCCCCCCCCC(=O)N(C)CC[N+](C)(C)C | nM | 410
CCCCCCCCCCCCCCCC(=O)N(C)CCC[N+](C)(C)CC | nM | 490
CCCCCCCCCCCCCC(=O)N(C)CCC[N+](C)(C)C | nM | 320
C=CC[N+](C)(C)CC(C)(C)CNC(=O)CCCCCCCCCCCCCCCCC | nM | 470
CCCCCCCCCCCCCC(=O)NCC(C)(C)C[N+](C)(C)C | nM | 510
CCCCCCCCCCCCCCCCCC(=O)N(C)CC[N+](C)(C)C | nM | 420
C=CC[N+](CC)(CC)CCN(C)C(=O)CCCCCCCCCCCCC | nM | 210
CCCCCCCCCCCCCCCCCC(=O)NCC(C)(C)C[N+](C)(C)C | nM | 240
CCCCCCCCCCCCCCCCCCOP(=O)([O-])OC1CC[N+](C)(C)CC1 [PERIFOSINE] | nM | 440
CCCCCCCCCCCCCCCC(=O)N(C)CCC[N+](C)(C)C | nM | 490

---

Test system: ACHN
Test: Antiproliferative activity against human ACHN cells at 1 uM by SRB assay
Assay type: functional
Entries whose growth, % of control at 1 µM is below 60% take MET; entries at or above 60% take NOT MET.

chemical_smiles | system_tested | discrete_label
CCCCCCCCCCCCCC(=O)N(C)CCC[N+](C)(C)C | ACHN | NOT MET
CCCCCCCCCCCCCCCCCC(=O)NCCC[N+](C)(C)C | ACHN | NOT MET
CCCCCCCCCCCCCC(=O)N(C)CCC[N+](C)(C)Cc1ccccc1 | ACHN | NOT MET
CCCCCCCCCCCCCC(=O)N(C)CC[N+](CC)(CC)CC | ACHN | MET
CCCCCCCCCCCCCCCC(=O)N(C)CC[N+](C)(C)C | ACHN | MET
C=CC[N+](C)(C)CCCN(C)C(=O)CCCCCCCCCCCCCCC | ACHN | MET
CCCCCCCCCCCCCCCCCC(=O)NCC(C)(C)C[N+](C)(C)C | ACHN | NOT MET
CCCCCCCCCCCCCCCC(=O)NCCC[N+](C)(C)C | ACHN | NOT MET
C=CC[N+](CC)(CC)CCN(C)C(=O)CCCCCCCCCCCCCCC | ACHN | MET
CCCCCCCCCCCCCCCCCC(=O)NCC(C)(C)C[N+](C)(C)Cc1ccccc1 | ACHN | NOT MET
CCCCCCCCCCCCCC(=O)NCC(C)(C)C[N+](C)(C)C | ACHN | NOT MET
CCCCCCCCCCCCCCCCCC(=O)N(C)CC[N+](C)(C)C | ACHN | MET
CCCCCCCCCCCCCCCC(=O)NCC(C)(C)C[N+](C)(C)CC | ACHN | NOT MET
CCCCCCCCCCCCCCCC(=O)N(C)CC[N+](CC)(CC)CC | ACHN | MET
CCCCCCCCCCCCCCCC(=O)N(C)CC[N+](C)(C)CC | ACHN | MET
CCCCCCCCCCCCCCCC(=O)N(C)CCC[N+](C)(C)CC | ACHN | NOT MET
C=CC[N+](C)(C)CCCN(C)C(=O)CCCCCCCCCCCCC | ACHN | NOT MET
CCCCCCCCCCCCCCCCCC(=O)NCC(C)(C)C[N+](C)(C)CC | ACHN | NOT MET
CCCCCCCCCCCCCC(=O)N(C)CC[N+](C)(C)C | ACHN | MET
C=CC[N+](CC)(CC)CCN(C)C(=O)CCCCCCCCCCCCC | ACHN | MET
C=CC[N+](C)(C)CC(C)(C)CNC(=O)CCCCCCCCCCCCCCCCC | ACHN | NOT MET
CCCCCCCCCCCCCCCC(=O)N(C)CCC[N+](C)(C)Cc1ccccc1 | ACHN | NOT MET
CCCCCCCCCCCCCC(=O)NCCC[N+](C)(C)C | ACHN | NOT MET
CCCCCCCCCCCCCCCC(=O)N(C)CC[N+](CC)(CC)Cc1ccccc1 | ACHN | MET

---

Attribute: growth, % of control at 10 µM
System: HCT-15
Assay: Antiproliferative activity against human HCT15 cells at 10 uM by SRB assay
Format: functional

chemical_smiles | growth, % of control at 10 µM / %
CCCCCCCCCCCCCCCC(=O)NCCC[N+](C)(C)C | 26.1
CCCCCCCCCCCCCCCC(=O)N(C)CCC[N+](C)(C)CC | 40.3
CCCCCCCCCCCCCC(=O)N(C)CC[N+](CC)(CC)CC | 43.1
